- assay_notes: Pharmacokinetics in mice
- Format: in vivo
- assay_context: mouse, plasma, po, 10 mg/kg
recorded_metric: bioavailability (%)
Record the value in %, omitting the unit from your answer.

Fill in the blank: the reported bioavailability of COc1cc(C(=O)N2CCC(N3CCN(C)CC3)CC2)ccc1Nc1ncc2c(n1)N(C)c1ccccc1C(=O)N2C is ____.
49.3

###

- tested_on: CHEK2 (Homo sapiens, UniProt O96017)
- Sequence (O96017 whole entry): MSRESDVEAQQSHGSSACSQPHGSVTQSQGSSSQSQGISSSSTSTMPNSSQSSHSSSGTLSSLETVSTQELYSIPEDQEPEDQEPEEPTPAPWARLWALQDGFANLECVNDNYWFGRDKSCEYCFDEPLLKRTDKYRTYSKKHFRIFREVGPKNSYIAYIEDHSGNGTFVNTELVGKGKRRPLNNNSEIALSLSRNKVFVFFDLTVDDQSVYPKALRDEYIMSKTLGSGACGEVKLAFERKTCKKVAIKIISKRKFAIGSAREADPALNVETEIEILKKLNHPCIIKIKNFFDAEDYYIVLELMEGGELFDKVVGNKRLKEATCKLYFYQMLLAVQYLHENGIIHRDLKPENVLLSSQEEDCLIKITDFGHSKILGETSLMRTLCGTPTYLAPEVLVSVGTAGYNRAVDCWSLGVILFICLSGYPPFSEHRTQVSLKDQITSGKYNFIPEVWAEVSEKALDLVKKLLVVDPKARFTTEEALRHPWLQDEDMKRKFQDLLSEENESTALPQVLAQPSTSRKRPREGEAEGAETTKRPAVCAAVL
- assay_notes: KiNativ
- Assay type: binding
pIC50: −log10 of the molar value.
recorded_metric: pIC50

May I ask what pIC50 has been recorded for COc1cc(C(=O)N2CCC(N3CCN(C)CC3)CC2)ccc1Nc1ncc2c(n1)N(C)c1ccccc1C(=O)N2C ?
< 6.00
